target: T1, Human CLDN18.2 (human, UniProt P56856-2 1-261); test: FACS, hybridoma culture supernatant on 293T-human CLDN18.2 cells
T1 construct: whole, on cells; also called human Claudin18.2; hCLDN18.2
t means recorded Average fluorescence intensity is 50000 or above; f means it is below 50000.

Recorded results for 3 binders are shown here.
INSERT INTO assay_data (binder, group) VALUES
  ('3A6 (hybridoma clone, murine CLDN18.2 antigen-binding protein) (antibody, V domains shown, Murine monoclonal antibody tested as hybridoma culture supernatant) VH: EVQLVESGGDLVQPGGSLKLSCAASGFTLSRYGMSWVRQTPDKRLEWVSTIISGGINTYYSDSVKGRFSISRDNARNTLYLQMSSLKSEDTAMYYCGRLYYGNAMDYWGQGTAVTVSS VL: DIVMTQSPSSLTVTAGEKVTMSCKSSQSLLNSGNQKNYLTWYQQKPGQPPKLLIYWASTRESGVPDRFTGSGSGTHFTLTISSVQAEDLAVYYCQNDYSYPLTFGAGTKLELKR', 't'),
  ('5E6 (hybridoma clone, murine CLDN18.2 antigen-binding protein) (antibody, V domains shown, Murine monoclonal antibody tested as hybridoma culture supernatant) VH: EVQLQQSGPELVKPGASVKMSCKASGYTFTNYVMNWVKQKPGQGLEWIGYINPYNDGTKYNERFKGKATLTSDKSSSTAFMEVSSLTSEDSAVYYCARLYRGNAMDYWGQGTSVTVSS VL: DIVMTQSPSSLTVTVREKVTLSCKSSQSLLNSGNQKNYLTWYQQKPGQPPKLLIYWASTRESGVPDRFTGSGSGTDFTLTISSVQAEDLAVYYCQNVYIYPFTFGAGTKLELKR', 't'),
  ('17B10 (hybridoma clone, murine CLDN18.2 antigen-binding protein) (antibody, V domains shown, Murine monoclonal antibody tested as hybridoma culture supernatant) VH: EVQLQESGPELVKPGASVKMSCKASGYTFTNYIIHWVKQKPGQGLEWIGYINPYTDGPKYNEKFKGRATLTSDKSSSTAYMEFSSLTSEDSAVYYCARLNRGNAMDYWGQGTSVTVSS VL: DIVMTQSPSSLTVTAGEKVTMNCKSSQSLLNSGNQKNYLTWYQQKPGQPPKLLIYWASTRESGVPDRFTGSGSGTDFTLTISSVQAEDLAVYYCQNDYSFPFTFGSGTKLEIKR', 'f');

QUERY: Assess whether reported Average fluorescence intensity for 14E12 (hybridoma clone, murine CLDN18.2 antigen-binding protein) (antibody, V domains shown, Murine monoclonal antibody tested as hybridoma culture supernatant) VH: EVQLQESGPELVKPGASVKMSCKASGYTFTNYIIHWVKQKPGQGLEWIGYINPYTDGPKYNEKFKGRATLTSDKSSSTAYMEFSSLTSEDSAVYYCARLNRGNAMDYWGQGTSVTVSS VL: DIVMTQSPSSLSVSAGEKVTMSCKSSQSLLNNGNQKNYLAWYQQKPGQPPKLLIYGASTRESGVPDRFTGSGSGTDFALTISSVQAEDLAVYYCQNDLYYPFTFGSGTKLDIKR sits at 50000 or higher.
RESULT: f

QUERY: Assess whether reported Average fluorescence intensity for 7E3 (hybridoma clone, murine CLDN18.2 antigen-binding protein) (antibody, V domains shown, Murine monoclonal antibody tested as hybridoma culture supernatant) VH: EVQLQQSGPELVKPGASVKMSCKASGYTFTNYIIHWVKQKPGQGLEWIGYINPYTDGPKYNEKFKGRATLTSDKSSSTAYMEFSSLTSEDSAVYYCARLNRGNAMDYWGQGTSVTVSS VL: DIVMTQSPSSLTVTVREKVTLSCKSSQSLLNSGNQKNYLTWYQQKPGQPPKLLIYWASTRESGVPDRFTGSGSGTDFTLTISSVQAEDLAVYYCQNVYIYPFTFGAGTKLELKR sits at 50000 or higher.
RESULT: f
